- Target entity: EZH2 (Homo sapiens (Human), UniProt Q15910)
- Sequence (Q15910 other isoform, or with tags, fused parts or gaps): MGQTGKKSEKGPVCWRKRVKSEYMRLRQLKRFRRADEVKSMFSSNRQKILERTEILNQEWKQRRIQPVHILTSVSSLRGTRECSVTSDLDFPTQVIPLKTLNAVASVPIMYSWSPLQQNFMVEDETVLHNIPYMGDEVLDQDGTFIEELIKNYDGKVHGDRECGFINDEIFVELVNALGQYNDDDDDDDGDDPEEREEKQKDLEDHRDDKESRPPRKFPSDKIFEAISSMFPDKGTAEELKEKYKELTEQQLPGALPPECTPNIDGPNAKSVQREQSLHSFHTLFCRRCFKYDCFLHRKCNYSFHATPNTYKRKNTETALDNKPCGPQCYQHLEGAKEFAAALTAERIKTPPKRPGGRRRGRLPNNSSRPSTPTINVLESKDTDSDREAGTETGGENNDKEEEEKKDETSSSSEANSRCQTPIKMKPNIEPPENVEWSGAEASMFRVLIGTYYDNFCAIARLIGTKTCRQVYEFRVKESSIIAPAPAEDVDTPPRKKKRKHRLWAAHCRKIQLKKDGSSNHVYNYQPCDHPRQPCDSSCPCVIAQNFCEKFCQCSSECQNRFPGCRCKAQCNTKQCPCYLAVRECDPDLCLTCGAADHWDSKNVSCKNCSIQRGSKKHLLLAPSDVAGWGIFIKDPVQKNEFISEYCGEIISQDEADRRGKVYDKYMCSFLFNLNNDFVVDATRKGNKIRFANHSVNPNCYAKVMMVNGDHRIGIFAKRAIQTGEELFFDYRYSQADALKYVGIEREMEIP
- Sequence (O75530 whole entry partner): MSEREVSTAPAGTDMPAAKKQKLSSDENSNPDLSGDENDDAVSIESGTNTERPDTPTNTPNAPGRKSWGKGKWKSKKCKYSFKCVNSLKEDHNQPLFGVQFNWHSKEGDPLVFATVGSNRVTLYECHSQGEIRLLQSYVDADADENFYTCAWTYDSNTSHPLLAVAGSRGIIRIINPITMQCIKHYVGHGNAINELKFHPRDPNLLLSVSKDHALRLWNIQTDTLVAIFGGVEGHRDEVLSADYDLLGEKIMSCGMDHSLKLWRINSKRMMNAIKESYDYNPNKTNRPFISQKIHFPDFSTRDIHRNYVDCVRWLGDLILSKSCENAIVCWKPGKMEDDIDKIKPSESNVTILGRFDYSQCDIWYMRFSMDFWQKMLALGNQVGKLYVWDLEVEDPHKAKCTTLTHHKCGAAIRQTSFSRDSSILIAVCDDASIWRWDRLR
- Sequence (Q15022 whole entry partner): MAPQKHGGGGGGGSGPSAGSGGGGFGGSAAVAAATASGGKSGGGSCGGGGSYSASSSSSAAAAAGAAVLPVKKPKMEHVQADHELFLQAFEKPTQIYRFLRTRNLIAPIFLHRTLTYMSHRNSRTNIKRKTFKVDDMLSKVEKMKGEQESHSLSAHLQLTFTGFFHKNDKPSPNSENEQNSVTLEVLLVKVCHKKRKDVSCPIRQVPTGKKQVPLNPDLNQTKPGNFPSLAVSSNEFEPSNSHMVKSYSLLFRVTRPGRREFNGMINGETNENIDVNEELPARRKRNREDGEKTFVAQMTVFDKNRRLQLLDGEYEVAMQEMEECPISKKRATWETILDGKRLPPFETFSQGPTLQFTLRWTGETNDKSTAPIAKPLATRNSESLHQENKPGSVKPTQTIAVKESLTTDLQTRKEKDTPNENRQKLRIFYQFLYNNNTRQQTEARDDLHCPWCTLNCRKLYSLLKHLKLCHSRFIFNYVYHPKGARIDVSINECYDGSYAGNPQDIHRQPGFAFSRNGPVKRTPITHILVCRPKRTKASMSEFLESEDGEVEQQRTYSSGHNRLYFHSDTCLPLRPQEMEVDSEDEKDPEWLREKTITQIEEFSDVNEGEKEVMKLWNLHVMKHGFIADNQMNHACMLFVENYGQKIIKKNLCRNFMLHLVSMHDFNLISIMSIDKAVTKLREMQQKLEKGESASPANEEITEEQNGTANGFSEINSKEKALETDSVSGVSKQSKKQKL
- Sequence (Q09028 whole entry partner): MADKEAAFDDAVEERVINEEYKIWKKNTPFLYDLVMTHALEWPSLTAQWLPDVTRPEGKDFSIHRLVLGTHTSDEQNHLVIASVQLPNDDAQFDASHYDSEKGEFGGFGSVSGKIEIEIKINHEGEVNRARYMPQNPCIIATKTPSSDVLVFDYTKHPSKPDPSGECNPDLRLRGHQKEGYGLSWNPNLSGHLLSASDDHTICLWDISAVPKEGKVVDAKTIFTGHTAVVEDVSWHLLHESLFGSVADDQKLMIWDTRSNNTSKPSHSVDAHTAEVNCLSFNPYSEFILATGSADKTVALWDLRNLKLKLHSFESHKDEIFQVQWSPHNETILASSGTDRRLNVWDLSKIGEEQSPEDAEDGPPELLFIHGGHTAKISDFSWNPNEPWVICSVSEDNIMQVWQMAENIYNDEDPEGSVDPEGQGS
- Test protocol: PRC2 enzyme assay on peptide substrates
- Assay type: biochemical
- Test context: PRC2 enzyme assays on peptide substrates; 4 nM enzyme, 30 min preincubation at 25° C.; read-out: EZH2 IC50
Each entry below carries its recorded IC50.

[[record]]
smiles_structure = "Cc1cc(CN2CCOCC2)c(CNC(=O)c2cccc3c2cnn3C2CCCC2)c(=O)[nH]1"
target_entity = "EZH2 (Homo sapiens (Human), UniProt Q15910)"
recorded_measurement = "3 to 10 µM"

[[record]]
smiles_structure = "Cc1cc(C)c(CNC(=O)c2cc(C=O)nc3c2cnn3C(C)C)c(=O)[nH]1"
target_entity = "EZH2 (Homo sapiens (Human), UniProt Q15910)"
recorded_measurement = "< 0.3 µM"

[[record]]
smiles_structure = "Cc1cc(C)c(CNC(=O)c2cc(C3=CCN(S(C)(=O)=O)CC3)nc3c2cnn3C(C)C)c(=O)[nH]1"
target_entity = "EZH2 (Homo sapiens (Human), UniProt Q15910)"
recorded_measurement = "1 to 3 µM"


Let us move to another entry and its IC50.
input: For the compound Cc1cc(C)c(CNC(=O)c2cc(C3CCN(C(=O)C4CN(C)C4)CC3)nc3c2cnn3C(C)C)c(=O)[nH]1 , what IC50 is on record?
output: < 0.3 µM

----------
Each entry below carries its recorded IC50.
- Target entity: UniProt Q15910
- Test protocol: PRC2 enzyme assay on peptide substrates
- Type: biochemical
- Test context: PRC2 enzyme assays on peptide substrates; 4 nM enzyme, 30 min preincubation at 25° C.; read-out: EZH2 IC50

Field: example entries. Status: answers known.
[[record]]
compound = "Cc1cc(C)c(CNC(=O)c2cc(-c3cccnc3N3CCNCC3)nc3c2cnn3C(C)C)c(=O)[nH]1"
recorded_measurement = "1 to 3 µM"

[[record]]
compound = "Cc1cc(C)n(C)c(=O)c1CNC(=O)c1cc(-c2cccc(CN(C)CCN(C)C)c2)nc2c1CNN2C(C)C"
recorded_measurement = "10 to 50 µM"

[[record]]
compound = "Cc1cc(C)c(CNC(=O)c2cc(N3CCNCC3)nc3c2cnn3C(C)C)c(=O)[nH]1"
recorded_measurement = "1 to 3 µM"

[[record]]
compound = "CCc1cc(C(=O)NCc2c(C)cc(C)[nH]c2=O)c2cnn(C(C)C)c2n1"
recorded_measurement = "1 to 3 µM"

[[record]]
compound = "Cc1cc(C)c(CNC(=O)c2cc(C3=CC(C)(C)NC(C)(C)C3)nc3c2cnn3CCO)c(=O)[nH]1"
recorded_measurement = "10 to 50 µM"


input: For the compound Cc1cc(C)c(CNC(=O)c2c(Cl)c(-c3ccc4c(c3)OCCO4)cc3c2cnn3C(C)C)c(=O)[nH]1 , what IC50 is on record?
output: 0.3 to 1 µM

input: Try the compound Cc1cc(C)c(CNC(=O)c2cc(C3=CC(C)(C)NC(C)(C)C3)nc3c2cnn3C2C=CCCC2)c(=O)[nH]1 (centres unmarked)
output: 1 to 3 µM

input: Try the compound Cc1cc(C)c(CNC(=O)c2cc(-c3ccc(N4CCN(C)CC4)nc3)nc3c2cnn3-c2ccccc2)c(=O)[nH]1
output: 10 to 50 µM

input: Try the compound Cc1cc(C)c(CNC(=O)c2cc(C3CCN(C(=O)C4CNC4)CC3)nc3c2cnn3C(C)C)c(=O)[nH]1
output: 0.3 to 1 µM

input: Try the compound Cc1cc(C)c(CNC(=O)c2cc(-c3cccc(CO)c3)cc3c2cnn3C2CCCC2)c(=O)[nH]1
output: 0.3 to 1 µM

Where do these numbers come from? They come from patent US9637472B2.
